All figures here come from paper PMC4325620.

Test system: Murine macrophages (J774.A1)
Assay: Cytotoxicity assay
Assay type: cell-based
Conditions: Mus musculus, J774.A1, 48 h, read-out: J774.A1 IC50 (µM)
Items are presented alongside their recorded IC50.
property: IC50 (µM)

O=c1cc(-c2ccc(O)c(-c3c(O)cc(O)c4c(=O)cc(-c5ccc(O)cc5)oc34)c2)oc2cc(O)cc(O)c12 [Amentoflavone, amentoflavone]: 5.5
O=c1cc(-c2ccc(O)c(-c3c(O)cc4oc(-c5ccc(O)cc5)cc(=O)c4c3O)c2)oc2cc(O)cc(O)c12 [Robustaflavone, robustaflavone]: 5.7
C[C@@H]1[C@H](O)[C@@H](C)/C=C/C=C/C=C/C=C/C=C/C=C/C=C/[C@H](O[C@@H]2O[C@H](C)[C@@H](O)[C@H](N)[C@@H]2O)C[C@@H]2O[C@](O)(C[C@@H](O)C[C@@H](O)[C@H](O)CC[C@@H](O)C[C@@H](O)CC(=O)O[C@H]1C)C[C@H](O)[C@H]2C(=O)O [Amphotericin B, reference compound]: 4.7
